Entry source: ChEMBL document CHEMBL3430912

Listed molecules paired with reported pIC50
Test system: Trypanosoma cruzi
Experiment: GSK_TCAKS: pIC50 Trypanosoma cruzi viability assay using beta-GAL activity. This assay was run at single shot at 5uM compound concentration per well. The biological reagents consisted of NIH-3T3 host cells and trypomastigotes parasitic cells; both cell types were set to a 3.3 * 10^5 cells/mL dilution in assay DMEM by means of a CASY cell counter device using a 60um capillary. 6 uL of the mixture were dispensed per well (about 1 * 10^3 host-cells and 1 * 10^3 parasites) with a Multidrop Combi dispenser. […] In all wells, the percentage of DMSO never exceeded 0.5%. Plates incubated for four days at 37C, 5% CO2. The substrate used for the assay fluorescence intensity (FLINT) readout was resorufin-beta-D-galactopiranoside (Sigma-Aldrich) at 5uM per well. It was diluted in PBS supplemented with the soft detergent Igepal (Fluka).
Format: functional, organism-based, Mus musculus
Conditions: Tulahuen, NIH3T3
pIC50: −log10 of the molar value.
Property: pIC50

| Molecule | System tested | Property | Recorded number |
| --- | --- | --- | --- |
| c1ccc(CNc2cccc3ccncc23)cc1 | Trypanosoma cruzi | pIC50 | 5.20 |
| O=C(NCCc1csc(-c2cccc(F)c2)n1)c1ccco1 | Trypanosoma cruzi | pIC50 | 5.80 |
| Cn1nc(-c2ccc(NC(=O)Cc3ccccc3Cl)cc2)c2c(N)ncnc21 | Trypanosoma cruzi | pIC50 | 5.70 |
| CCN(CC)c1ncc(C(=O)c2ccc([N+](=O)[O-])o2)s1 | Trypanosoma cruzi | pIC50 | 5.40 |
| O=C(CN(Cc1ccccn1)Cc1ccccn1)NCc1ccc2c(c1)OCO2 | Trypanosoma cruzi | pIC50 | 5.10 |
| Cc1ccc(NC(=O)C(C)n2nc([N+](=O)[O-])c(Br)c2C)cc1Cl (stereo unspecified) | Trypanosoma cruzi | pIC50 | 5.60 |

* * *

Molecular target: Sterol 14-alpha demethylase (Trypanosoma cruzi (strain CL Brener), UniProt Q7Z1V1)
Sequence (Q7Z1V1 whole entry): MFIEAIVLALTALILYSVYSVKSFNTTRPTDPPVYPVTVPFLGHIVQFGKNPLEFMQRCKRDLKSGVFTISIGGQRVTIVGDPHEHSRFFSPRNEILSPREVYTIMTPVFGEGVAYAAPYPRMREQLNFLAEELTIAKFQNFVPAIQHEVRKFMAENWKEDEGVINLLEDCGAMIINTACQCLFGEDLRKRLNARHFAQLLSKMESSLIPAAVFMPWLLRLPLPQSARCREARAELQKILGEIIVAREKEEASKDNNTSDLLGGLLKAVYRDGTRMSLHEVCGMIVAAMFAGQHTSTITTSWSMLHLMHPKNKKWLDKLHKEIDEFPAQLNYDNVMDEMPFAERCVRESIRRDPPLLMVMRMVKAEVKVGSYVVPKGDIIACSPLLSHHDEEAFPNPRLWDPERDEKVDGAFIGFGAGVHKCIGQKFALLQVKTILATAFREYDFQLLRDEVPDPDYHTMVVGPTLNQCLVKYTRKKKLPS
Assay: GSK_TCAKS: pIC50 CYP51 from Trypanosoma cruzi.
hey, just use Yes if measured IC50 is less than 80 µM, otherwise No

| Compound | System tested | Assigned category |
| --- | --- | --- |
| COCCn1c(-c2ccc3c(c2)OCO3)cnc1NCc1ccccc1OC | Sterol 14-alpha demethylase (Trypanosoma cruzi (strain CL Brener), UniProt Q7Z1V1) | Yes |
| NC(=O)c1ncccc1Nc1nc(N[C@H]2CC[C@H](O)CC2)ncc1Br | Sterol 14-alpha demethylase (Trypanosoma cruzi (strain CL Brener), UniProt Q7Z1V1) | No |
| COc1ccc(NS(=O)(=O)c2cccc(NC(=O)c3cc(F)cc(F)c3)c2)cc1 | Sterol 14-alpha demethylase (Trypanosoma cruzi (strain CL Brener), UniProt Q7Z1V1) | No |
| O=C(O)[C@H]1C[C@@H]1c1ccc(-c2ccc(CN(CCc3ccccn3)C(=O)C3CCC3)cc2)cc1 | Sterol 14-alpha demethylase (Trypanosoma cruzi (strain CL Brener), UniProt Q7Z1V1) | Yes |
| CN(Cc1nnnn1C1CCN(Cc2ccc(-n3ccnc3)cc2)CC1)c1ccc(F)cc1F | Sterol 14-alpha demethylase (Trypanosoma cruzi (strain CL Brener), UniProt Q7Z1V1) | Yes |
| Cc1ccccc1CNC(=O)CN(Cc1ccccn1)Cc1ccccn1 | Sterol 14-alpha demethylase (Trypanosoma cruzi (strain CL Brener), UniProt Q7Z1V1) | No |
| CC(=O)Nc1ccc(-c2noc(CC3CCCN(Cc4cccc(F)c4C)C3)n2)cc1 (stereo not given) | Sterol 14-alpha demethylase (Trypanosoma cruzi (strain CL Brener), UniProt Q7Z1V1) | No |
| COc1ccc(-c2cc(C)no2)cc1S(=O)(=O)Nc1ccc(C)c(C)c1 | Sterol 14-alpha demethylase (Trypanosoma cruzi (strain CL Brener), UniProt Q7Z1V1) | Yes |

* * *

Assay: GSK_TCAKS: pIC50 HepG2 human cell line viability assay using luminiscence. […] Seeding density was checked to ensure that new mono-layers were not more than 50% confluent at the time of harvesting. Cell suspension was added to 500 mL of the same medium at a final density of 1.2 * 10^5 cells/mL. This cell suspension was dispensed (25 uL, 3000 cells per well) into 384-well clear-bottom plates using a Multidrop Combi dispenser. Prior to addition of the cell suspension, the screening compounds (250 nL) were pre-dispensed into the plates with an Echo liquid handler. Plates were incubated for 48 h at 37C, 5% CO2. After incubation, plates equilibrated at room temperature for 30 min before proceeding to develop the luminescent signal. The signal developer, CellTiter-Glo Reagent, was allowed to equilibrate at room temperature for 30 min and added to the plates (25uL per well) using a Multidrop Combi dispenser. Plates were left for 10 min at room temperature for stabilization and then read using a ViewLux.
Type: toxicity, cell-based
As shown below, each of these compounds has a reported IC50 at 48 h value.
Property: IC50 at 48 h

| Compound | Result |
| --- | --- |
| COc1ccc(NS(=O)(=O)c2cc(NC(=O)c3ccc([N+](=O)[O-])s3)ccc2OC)cc1 | > 100 µM |
| COc1ccc(-c2cnc(NC(=O)c3ccc(F)cc3)n2C)cc1 | > 100 µM |
| COc1ncc(-c2ccc3nccc(-c4ccncc4)c3c2)cc1NS(C)(=O)=O | > 100 µM |
| O=C(NCCc1cccnc1)c1csc(-c2ccccc2)n1 | > 100 µM |
| CN(Cc1nc2cccc(C(=O)N3CCN(Cc4ccccc4)CC3)c2[nH]1)C1CCCc2cccnc21 (stereo not given) | 12.6 µM |
| COc1ccc(-c2ccc3nnc(-c4ccc(O)c(OC)c4)n3c2)cn1 | > 100 µM |
| CS(=O)(=O)c1cccc(-c2cnc(N)c3c(-c4ccc(CO)cc4)csc23)c1 | > 100 µM |
| NC(=O)c1cc(NC(=O)c2ccccc2COc2ccccc2)ccc1Cl | > 100 µM |
| COCc1cc(Nc2ccccc2)nc(-c2ccccn2)n1 | 100 µM |
| CCCCc1cc(Nc2cc(C3CCC3)[nH]n2)nc(N2CCC2C(N)=O)n1 (stereo not given) | > 100 µM |

* * *

Biological target: Sterol 14-alpha demethylase (Trypanosoma cruzi (strain CL Brener))
Experiment: GSK_TCAKS: pIC50 CYP51 from Trypanosoma cruzi.
pIC50: −log10 of the molar value.
Property: pIC50

| Compound | Comparator | Recorded number |
| --- | --- | --- |
| CCc1cccc(CC)c1-n1c(SCC(=O)N2CC(=O)Nc3ccccc32)nnc1-c1cccnc1 | = | 5.50 |
| Cc1cc(N(C)C)nc(Nc2ccccc2C)n1 | < | 4.00 |
| O=C(Nc1cccc(F)c1)N1CCC(Oc2cccc(-c3cccnc3)c2)CC1 | = | 6.80 |
| Cc1nc2c(-c3cccs3)c(C)nn2c(NCCO)c1C | < | 4.00 |
| Cc1nn(-c2nc(N)nc(-c3ccccn3)n2)c(N)c1-c1ccccc1 | < | 4.00 |
| CC(c1ccccn1)N(C)Cc1nc2ccccc2n1C(C)C (stereo unspecified) | = | 4.50 |

* * *

Target: Sterol 14-alpha demethylase (Trypanosoma cruzi (strain CL Brener))
Assay: GSK_TCAKS: pIC50 CYP51 from Trypanosoma cruzi.
pIC50: −log10 of the molar value.
// pIC50 lookup, one value per entry
Property: pIC50

| Smiles entry | Property | Result |
| --- | --- | --- |
| CCC(CC)C(=O)Nc1cccc(C(=O)Nc2nnc(C3CCCCC3)s2)c1 | pIC50 | < 4.00 |
| CC(C)(C)CC(=O)NCc1noc(COc2ccccc2)n1 | pIC50 | 4.30 |
| CCNc1cc(-c2ccccn2)nc(Nc2ccccc2)n1 | pIC50 | < 4.00 |
| CC(C)Nc1nccc(-c2c(-c3ccc(F)cc3)ncn2C2CCOCC2)n1 | pIC50 | < 4.00 |
| O=C(NCCc1ccccc1Cl)c1cccn1-c1cccnc1 | pIC50 | 7.10 |
| Cc1nc2[nH]c(C)c(Cc3ccc(C(C)C)cc3)c(=O)n2n1 | pIC50 | < 4.00 |

* * *

System: Trypanosoma brucei brucei
Assay: GSK_TCAKS: pIC50 Trypanosoma brucei viability assay using fluorescence intensity. Assay plates (1536-well) were prepared by dispensing 25nL of compound solution per well using an Echo acoustic dispenser (Labcyte).
Format: functional, organism-based
Conditions: Lister 427, 2 h
Quick reference for IC50 among some compounds
Property: IC50 (µM)

| Compound | Comparator | Recorded number |
| --- | --- | --- |
| CNC(=O)C1Cc2ccccc2N1C(=O)Cc1ccccc1 (configuration not stated) | = | 0.631 |
| O=C(Nc1ccc(C(F)(F)F)cc1)NC1(C(=O)NCc2ccco2)CCCCC1 | = | 0.794 |
| O=C(NCc1ccc(Cl)cc1)C1CN(C(=O)c2ccc(F)cc2)CCS1 (configuration not stated) | = | 0.794 |
| N#Cc1nc(C=Cc2ccccc2)oc1NCc1cccnc1 | = | 15.8 |
| CCc1cccc(-n2nc(OCC(=O)NC3CCCC3)c3cccnc32)c1 | > | 39.8 |
| O=S(=O)(NCC(c1cccnc1)N1CCN(c2ccccc2F)CC1)c1ccc(F)cc1 (configuration not stated) | = | 25.1 |
| NC(=O)c1cc(F)ccc1Nc1nc(N[C@H]2CC[C@H](O)CC2)ncc1Br | = | 0.0794 |
| CCN(CC)c1nc(N(C)C)nc2c1CN(Cc1ccccc1)CC2 | = | 20 |
| COc1ccc(S(=O)(=O)Nc2ccc(C(=O)Nc3nc(-c4ccccn4)cs3)cc2)cc1 | = | 0.794 |
| CN(C)CCN(C)Cc1ccc(Cl)cc1NS(=O)(=O)c1ccc(Cl)c(Cl)c1 | = | 7.94 |
| O=C(CSc1nnc2ccc(-c3ccc(F)cc3)nn12)N1CCCCC1 | = | 0.398 |
| CCOc1ccc(Nc2ccc(S(=O)(=O)N3CCN(C)CC3)cc2[N+](=O)[O-])cc1OCC | = | 6.31 |
| CN(C)S(=O)(=O)c1cccc(C(=O)Nc2nc(-c3ccccn3)cs2)c1 | = | 0.501 |
| COc1cccc(-c2c(C)nn(-c3nc(N)nc(-c4ccccn4)n3)c2N)c1 | > | 39.8 |
| O=C(Nc1ccc(-c2nc3ccccc3c(=O)[nH]2)cc1)c1cccs1 | = | 0.251 |
| COc1ccccc1-c1c(C)[nH]c2nc(N)nc(C)c12 | = | 25.1 |
| O=C(CSc1ccc(F)cc1)N[C@@H](Cc1c[nH]cn1)C(=O)NCCc1ccccc1 | > | 39.8 |
| Nc1nonc1-c1nc2cncc(C(=O)N3CC[C@H](N)C3)c2n1CC1CC1 | = | 0.631 |
| O=C1CSC(c2cccnc2)N1c1ccc(Cl)cc1Cl (configuration not stated) | > | 39.8 |
| Cc1cccnc1CN1CCN(CCCOc2ccc(-c3ccc(C(N)=O)cc3)cc2)CC1 | = | 10 |
| N#Cc1cc(-c2ccnc(Nc3cccc(CN4CCOCC4)c3)n2)ccc1NCCN | = | 0.398 |
| COc1ccc2ncc(=O)n(CCN3CC[C@H](NCc4ncc(Cl)c5[nH]ncc45)[C@H](O)C3)c2n1 | = | 0.316 |
| CC(Cn1ccnc1)NC(=O)C=Cc1ccc(Cl)cc1 (configuration not stated) | > | 39.8 |
| CC(=Cc1ccccc1)CN1CCC(=O)N(Cc2cccnc2)CC1 | > | 39.8 |
| CCCc1cc(C(=O)Nc2ncc(-c3cccc(Br)c3)n2C)[nH]n1 | = | 2.51 |
| Cc1ccc(NC(=O)c2ccc(Cl)c(NC(=O)c3ccc([N+](=O)[O-])cc3)c2)cc1 | = | 7.94 |
| O=S(=O)(c1cccc(CSc2nnc(-c3ccc4c(c3)OCO4)o2)c1)N1CCOCC1 | = | 31.6 |
| Cn1nccc1NC(=O)Cn1ccc(-c2ccncc2)n1 | = | 0.631 |
| O=[N+]([O-])c1ccc(C2=NCCNC(c3ccccc3)=C2)cc1.[O-][Cl+3]([O-])([O-])O | = | 6.31 |
| CNc1c(C(N)=O)c(-c2ccc3scnc3c2)nn1CC(F)(F)F | = | 31.6 |
| Cc1c(CNC(=O)c2ccc(Cn3cc(Cl)c([N+](=O)[O-])n3)cc2)cnn1C | = | 5.01 |
| Cc1cc(Nc2cc(C3CC3)[nH]n2)nc(N2CCC[C@H]2C(N)=O)n1 | = | 0.0126 |
| CCCN1CCN(Cc2ccc(S(=O)(=O)Nc3cccc(C)c3)cc2)CC1 | = | 25.1 |
| CCN(CC)c1nc(Nc2ccncc2)nc2ccccc12 | = | 2.51 |
| CCN(CC)S(=O)(=O)c1ccc(OC)c(NC(=O)c2ccc([N+](=O)[O-])s2)c1 | = | 0.398 |
| COc1ccc(-c2cnc(C)o2)cc1S(=O)(=O)Nc1ccc(C)cc1C | = | 6.31 |
| COc1cc(C2SCC(=O)Nc3c2c(C)nn3-c2nc3ccccc3s2)cc(OC)c1O (configuration not stated) | = | 6.31 |
| Cc1ncsc1CNc1cnc(-c2ccc3c(c2)OCCO3)c(-c2cnn(C)c2)c1 | = | 0.126 |
| O=C(Nc1ccc(Br)c(Cl)c1)Nc1ccc2c(c1)OCO2 | = | 7.94 |
| O=C(NCCc1ccccc1Cl)c1cccn1-c1cccnc1 | = | 31.6 |
| Cc1nn2c(O)c3c(nc2c1-c1ccc(F)cc1)CCCC3 | = | 0.398 |
| O=C(CN1CCN(c2ccccn2)CC1)Nc1cc(S(=O)(=O)N2CCCCCC2)ccc1Cl | = | 12.6 |
